test system: SF-268 CNS; assay: NCI-60 one-dose screen, 48 h (100 = growth as untreated, 0 = no growth, -100 = all killed); settings: 10 µM
About 83,000 compounds went through this panel and 20% of them were active in at least one assay; those are over-represented in the sample as a whole.
attribute_measured: growth (%)
The figure you give is taken to be in %; do not add the unit.

{"compound": "COc1cc2cc(C(=O)N3C[C@@H](CCl)c4c3cc(OC(=O)N3CCN(C(=O)CCC(=O)N5CCN(C)CC5)[C@@H]5CSSC[C@@H]53)c3ccccc43)[nH]c2c(OC)c1OC", "growth [%]": -28.4}
{"compound": "CC1=C(COCCOC(=O)c2ccc(S(=O)(=O)F)cc2)C2=C(C)C3(CC3)[C@@](C)(O)C(=O)C2=C1", "growth [%]": 12.9}
{"compound": "O=C(/C=C/c1ccc(Cl)cc1Cl)c1nc2ccccc2n1Cc1ccc(F)cc1", "growth [%]": 49.9}

Ask: What value of growth has been reported for the following compound? `CC1=C(C=O)C2=C(C)C3(CC3)[C@@](C)(O)C(=O)C2=C1`
Reply: 36.2

Ask: What value of growth has been reported for the following compound? CC12OOC(C)(OO1)C2CCC(=O)OCCNc1ccnc2cc(Cl)ccc12 (configuration not stated)
Reply: 97

Ask: What value of growth has been reported for the following compound? `Cc1ccc2[nH]c(=S)n(-c3ccc(F)cc3)c(=O)c2c1`
Reply: 106

Ask: What value of growth has been reported for the following compound? `CC(C)C[C@H](NC(=O)CNC(=O)C[C@H]1O[C@@H]2OC3(C)CC[C@H]4[C@H](C)CC[C@@H]([C@H]1C)[C@@]24OO3)B(O)O`
Reply: 17.4

Ask: What value of growth has been reported for the following compound? CC12OOC(C)(OO1)C2CCC(=O)NCCCNc1ccnc2cc(Cl)ccc12 (configuration not stated)
Reply: 101

Ask: What value of growth has been reported for the following compound? `C#CCCCN(CCNc1ccnc2cc(Cl)ccc12)C(=O)CCC(=O)O[C@@H]1O[C@@H]2OC3(C)CC[C@H]4[C@H](C)CC[C@@H]([C@H]1C)[C@@]24OO3`
Reply: 56.9

Ask: What value of growth has been reported for the following compound? `O=C(/C=C/c1ccc(F)cc1)c1nc2ccccc2n1Cc1ccc(F)cc1`
Reply: 16.2

Ask: What value of growth has been reported for the following compound? `COC(=O)CCn1c(-c2ccc(-n3cc(-c4ccc(O[C@H]5O[C@@H]6OC7(C)CC[C@H]8[C@H](C)CC[C@@H]([C@H]5C)[C@@]68OO7)cc4)nn3)cc2)nc2ccccc21`
Reply: 31.8

Ask: What value of growth has been reported for the following compound? `O=C(/C=C/c1ccccc1)c1nc2ccccc2n1Cc1ccc(Br)cc1`
Reply: 3.91

* * *

tested on: SNB-75 CNS; assay: NCI-60 one-dose screen, 48 h (100 = growth as untreated, 0 = no growth, -100 = all killed); conditions: 10 µM
About 83,000 compounds went through this panel and 20% of them were active in at least one assay; those are over-represented in the sample as a whole. Calls of active or inactive are those of the source. How the source made its calls: active means growth percent below 10; inactive means the rest.
attribute_measured: growth

The cases that follow already have their growth on record.
{"compound": "CC12CCC3(CCC(=O)NCCCNc4ccnc5cc(Cl)ccc45)[C@@](C)(OO[C@]3(C)O1)O2", "assay_target": "SNB-75 CNS", "attribute_measured": "growth", "value_measured": "-4.41% (active)"}
{"compound": "COc1ccc2cc([C@H](C)C(=O)[Se]CCC#N)ccc2c1", "assay_target": "SNB-75 CNS", "attribute_measured": "growth", "value_measured": "-46.8% (active)"}
{"compound": "CC12OOC(C)(OO1)C2CCC(=O)NCCNc1ccnc2cc(Cl)ccc12 (configuration not stated)", "assay_target": "SNB-75 CNS", "attribute_measured": "growth", "value_measured": "101% (inactive)"}
{"compound": "CC[C@]12C=CCN3CC[C@@]4(c5ccc(OC)cc5N(C)[C@H]4[C@@](O)(C(=O)OC)[C@@H]1OC(=O)CCC[P+](C1CCCCC1)(C1CCCCC1)C1CCCCC1)[C@@H]32", "assay_target": "SNB-75 CNS", "attribute_measured": "growth", "value_measured": "-61.4% (active)"}
{"compound": "CC[C@]12C=CCN3CC[C@@]4(c5ccc(OC)cc5N(C)[C@H]4[C@@](O)(C(=O)OC)[C@@H]1OC(=O)CCCC[P+](c1ccc(C)cc1)(c1ccc(C)cc1)c1ccc(C)cc1)[C@@H]32", "assay_target": "SNB-75 CNS", "attribute_measured": "growth", "value_measured": "-87.6% (active)"}
{"compound": "CC[C@@]12CC(C(=O)OC)=C3Nc4cc5c(cc4[C@@]34CCN(C[C@H]3O[C@H]31)[C@@H]24)[C@@H]1[C@H](O5)[C@@H](O)[C@@]2(CC)CC(C(=O)OC)=C3Nc4cc(OC)ccc4[C@@]34CCN1[C@@H]24", "assay_target": "SNB-75 CNS", "attribute_measured": "growth", "value_measured": "-4.82% (active)"}

Let us move to another entry and its growth.
Ask: What value of growth has been reported for the following compound? `COc1cc(OC)c(/C=C/C(=O)c2nc3ccccc3n2Cc2ccc(F)cc2)c(OC)c1`
Reply: 0.098% (active)

* * *

system: HL-60(TB) leukemia; experiment: NCI-60 one-dose screen, 48 h; settings: 10 µM unless noted
About 83,000 compounds went through this panel and 20% of them were active in at least one assay; those are over-represented in the sample as a whole. Calls of active or inactive are those of the source. The calls were made as follows: active = growth percent below 10; inactive = the rest.
Please reply with one of these outcomes: active, inactive

Take a look at these entries with their results.
{"compound": "Nc1nn2c(-c3cc4cc(Br)ccc4oc3=O)ccnc2c1N=Nc1ccccc1", "assigned_class": "inactive"}
{"compound": "O=C(N=Nc1c(O)[nH]c2ccc([N+](=O)[O-])cc12)c1ccc2nc(-c3ccccc3)[nH]c2c1", "assigned_class": "inactive"}
{"compound": "CN(C)c1nc(NCCNS(=O)(=O)c2ccc(C(=O)/C=C/c3ccc(F)cc3)cc2)nc(Nc2ccc(F)cc2)n1", "assigned_class": "active"}

// next entry
Ask: So what was the verdict on CC12CC[C@@H]3[C@]4(C)COC(c5c(F)cccc5F)O[C@@H]4CC[C@@]3(C)[C@@H]1CC(C1=CCOC1=O)O2 (some centres undefined) in this test?
Reply: inactive

* * *

tested on: MDA-MB-468 breast; test: NCI-60 one-dose screen, 48 h; details: 10 µM unless noted
This is part of a sample that, as a whole, favours compounds with a hit. Of some 83,000 tested, about 20% had one in any assay. The source made the active and inactive calls. Rule for the calls: active = growth percent below 10; inactive = the rest.
Please reply with one of these outcomes: active, inactive

Take a look at these entries with their results.
{"molecule": "FC(F)=C(F)c1ccccc1", "assigned_class": "inactive"}
{"molecule": "Cc1cc(C(C)(C)c2ccc(O)c(C)c2)ccc1O", "assigned_class": "inactive"}
{"molecule": "O=[N+]([O-])c1cnc[nH]1", "assigned_class": "inactive"}
{"molecule": "CCCCCCCOC(C(=O)OCCN(CC)CC)(c1ccccc1)c1ccccc1", "assigned_class": "inactive"}

Ask: So what was the verdict on `Nc1ncnc2n[nH]nc12` in this test?
Reply: inactive

Ask: So what was the verdict on `COc1ccc(/C=C/c2cc(OC)c(OC)c(OC)c2)cc1NC(=O)/C=C/c1ccc(F)cc1` in this test?
Reply: inactive

Ask: So what was the verdict on `CC1=C(O)[C@@](C)(CCCCC[C@H](C)CCCCc2ccc(O)cc2)OOC1=O` in this test?
Reply: inactive

Ask: So what was the verdict on `COC(=O)CCP(CCC(=O)OC)c1ccccc1` in this test?
Reply: inactive

Ask: So what was the verdict on `COC(=O)[C@@H](C)C[C@H](Cc1ccccc1)NC(=O)c1csc([C@@H](C[C@H](C(C)C)N(C)C(=O)[C@@H](NC(=O)[C@H]2CCCCN2C)C(C)C)OC(C)=O)n1` in this test?
Reply: active

Ask: So what was the verdict on O=C(CC1(O)C(=O)N(Cc2ccccc2)c2ccc(F)cc21)c1ccc(C(=O)NCC2CCC3(CC2)OOC2(CCCCC2)OO3)cc1 (stereo unspecified) in this test?
Reply: active

Ask: So what was the verdict on `CC1=C(CCC=O)C2=C(C)C3(CC3)[C@@](C)(O)C(=O)C2=C1` in this test?
Reply: active

* * *

Test system: RXF 393 renal
Test: NCI-60 one-dose screen, 48 h
Details: 10 µM
Method: Cells are grown in 96 well plates and exposed to the test compound for 48 hours. Compounds are tested at a single concentration, which is 10^-5 M for most compounds. The reported endpoint is percent growth (GI% or GIPRCNT), where numbers from 0 - 100% represent growth inhibition, and numbers from -100% - 0 represent cell death. For example, a value of 40 represents 60% growth inhibition. A value of 0 means no net growth occurred over the course of the experiment. […]
This is part of a sample that, as a whole, favours compounds with a hit. Of some 83,000 tested, about 20% had one in any assay. Activity calls are given as the source filed them. The calls were made as follows: active = growth percent below 10; inactive = the rest.
Please reply with one of these outcomes: active, inactive

Take a look at these entries with their results.
{"molecule": "C[C@H]1[C@@H](Oc2ccc(-c3cn(-c4ccnc5cc(Cl)ccc45)nn3)cc2)O[C@@H]2OC3(C)CC[C@H]4[C@H](C)CC[C@@H]1[C@@]24OO3", "assigned_class": "inactive"}
{"molecule": "O=C(/C=C/c1ccc(Cl)cc1)c1nc2ccccc2n1Cc1ccc(F)cc1", "assigned_class": "inactive"}

Ask: So what was the verdict on `CC[C@]12C=CCN3CC[C@@]4(c5ccc(OC)cc5N(C)[C@H]4[C@@](O)(C(=O)OC)[C@@H]1OC(=O)CCC[P+](c1ccc(C)cc1)(c1ccc(C)cc1)c1ccc(C)cc1)[C@@H]32` in this test?
Reply: active

Ask: So what was the verdict on `C[C@H]1[C@H](OC(=O)CCC(=O)N(CCCc2cn(-c3ccc([N+](=O)[O-])cc3)nn2)CCNc2ccnc3cc(Cl)ccc23)O[C@@H]2OC3(C)CC[C@H]4[C@H](C)CC[C@@H]1[C@@]24OO3` in this test?
Reply: inactive

Ask: So what was the verdict on `C[C@H]1[C@H](OC(=O)CCC(=O)N(CCCc2cn(-c3ccc(C#N)cc3)nn2)CCNc2ccnc3cc(Cl)ccc23)O[C@@H]2OC3(C)CC[C@H]4[C@H](C)CC[C@@H]1[C@@]24OO3` in this test?
Reply: inactive

Ask: So what was the verdict on `COc1ccc(OC)c(/C=C/C(=O)c2nc3ccccc3n2Cc2ccc(F)cc2)c1` in this test?
Reply: active
